Test: Stability in rat plasma (QC samples: short-term, freeze-thaw, long-term)
Format: in vitro ADME
Settings: Plasma samples stored at −80 °C for 10 days, spiked 25 ng/mL, read-out: Stability (% Remained)
Method: Stabilities of 2,3-DMS in stock solution were evaluated after storage at room temperature for eight days. Stability of 2,3-DMS in rat plasma under different conditions was profiled with QC samples. Freeze-thaw stability was assessed after three freeze (−80 °C)–thaw (24 °C) cycles. […] Long-term storage stability of 2,3-DMS in rat plasma was studied after being stored at −80 °C for 10 days. […] The stability of 3,4-DMS was assessed in the same way. […]
measured_property: remaining at 240 h, 25 ng/mL (%)

COc1ccc(/C=C/c2ccccc2)cc1OC [3,4-DMS, trans-3,4-dimethoxystilbene]
91
COc1cccc(/C=C/c2ccccc2)c1OC [2,3-DMS, trans-2,3-Dimethoxystilbene]
107

* * *

assay: Post-preparative stability (processed samples in auto-sampler vial); assay type: physicochemical; details: rat, Post-preparative samples stored at 24 °C for 24 h, spiked 25 ng/mL, read-out: Stability (% Remained)
measured_property: remaining at 24 h, 25 ng/mL (%)

COc1cccc(/C=C/c2ccccc2)c1OC [2,3-DMS, trans-2,3-Dimethoxystilbene]
97.2
COc1ccc(/C=C/c2ccccc2)cc1OC [3,4-DMS, trans-3,4-dimethoxystilbene]
98.1

* * *

test: Stock solution stability (DMSO stock, room temperature); format: physicochemical; conditions: Stock solution stored at 24 °C for 8 days, read-out: Stability (% Remained)
measured_property: remaining at 192 h, 1 mg/mL (%)

COc1cccc(/C=C/c2ccccc2)c1OC [2,3-DMS, trans-2,3-Dimethoxystilbene]
98.1
COc1ccc(/C=C/c2ccccc2)cc1OC [3,4-DMS, trans-3,4-dimethoxystilbene]
96.7

* * *

Assay: Rat liver microsome metabolic stability
Assay type: in vitro ADME, Sprague-Dawley rat
Settings: Sprague-Dawley, pH 7.4; rat liver microsomes, in the presence of NADPH, 0.6 µg/mL, 37 °C
Description: RLM metabolic stabilities of 2,3-DMS and 3,4-DMS were examined by mixing Sprague-Dawley RLM with potassium phosphate buffer (pH = 7.4), NADPH regenerating solution B and either compounds to achieve a final compound concentration of 0.6 µg/mL. Negative control was set up, using Milli-Q water in place of NADPH. […] Pre-incubation was done in 37 °C water bath for 5 min before NADPH A was added to initiate reaction. […] Chemical stability was monitored at 0, 25 and 45 min. […]
measured_property: half-life at 0.6 µg/mL (min)

COc1ccc(/C=C/c2ccccc2)cc1OC [3,4-DMS, trans-3,4-dimethoxystilbene]
16.6
COc1cccc(/C=C/c2ccccc2)c1OC [2,3-DMS, trans-2,3-Dimethoxystilbene]
14.2

* * *

experiment: Stability in rat plasma (QC samples: short-term, freeze-thaw, long-term); format: in vitro ADME; details: Plasma samples after three freeze-thaw cycles, spiked 400 ng/mL, read-out: Stability (% Remained)
measured_property: remaining at 400 ng/mL (%)

COc1cccc(/C=C/c2ccccc2)c1OC [2,3-DMS, trans-2,3-Dimethoxystilbene]
93.2
COc1ccc(/C=C/c2ccccc2)cc1OC [3,4-DMS, trans-3,4-dimethoxystilbene]
93.4

* * *

test: Oral pharmacokinetics in Sprague-Dawley rats; type: in vivo; settings: male, Sprague-Dawley, rat, plasma; oral 10 mg/kg vs intravenous 4 mg/kg; read-out: F (oral bioavailability)
measured_property: bioavailability (%)
Please reply with the bare figure in % and do not write the unit itself.

Notebook: COc1cccc(/C=C/c2ccccc2)c1OC [2,3-DMS, trans-2,3-Dimethoxystilbene] , bioavailability read as 2.22

* * *

Assay: Intravenous pharmacokinetics in Sprague-Dawley rats
Assay type: in vivo
Conditions: male, Sprague-Dawley, rat, plasma; intravenous 4 mg/kg
Procedure: This animal model has been used to investigate the pharmacokinetics of various stilbenes. The animal handling protocol was reviewed and approved by the Institutional Animal Care and Use Committee of the National University of Singapore (NUS). […] Pharmacokinetic parameters were derived using WinNonlin standard version 1.0 (Scientific Consulting Inc., Apex, NC, USA). […] Clearance (Cl0→last), mean transit time (MTT0→last) and terminal half-life (t1/2 λZ) were calculated using non-compartmental analysis. […]
measured_property: AUC(0-t) (ng·h/mL)

a = COc1ccc(/C=C/c2ccccc2)cc1OC [3,4-DMS, trans-3,4-dimethoxystilbene]
b = COc1cccc(/C=C/c2ccccc2)c1OC [2,3-DMS, trans-2,3-Dimethoxystilbene]
Prompt: Lab note: check whether a or b shows the higher recorded AUC(0-t). # reply format: chosen label
Completion: b
(b: 1160 ng·h/mL, a: 427 ng·h/mL)

* * *

assay: Post-preparative stability (processed samples in auto-sampler vial); type: physicochemical; details: rat, Post-preparative samples stored at 24 °C for 24 h, spiked 1400 ng/mL, read-out: Stability (% Remained)
measured_property: remaining at 24 h, 1400 ng/mL (%)

COc1ccc(/C=C/c2ccccc2)cc1OC [3,4-DMS, trans-3,4-dimethoxystilbene]
100
COc1cccc(/C=C/c2ccccc2)c1OC [2,3-DMS, trans-2,3-Dimethoxystilbene]
101

* * *

assay: Intravenous pharmacokinetics in Sprague-Dawley rats; format: in vivo; details: male, Sprague-Dawley, rat, plasma; intravenous 4 mg/kg; read-out: t1/2 λZ (terminal elimination half-life)
measured_property: half-life (h)

I = COc1cccc(/C=C/c2ccccc2)c1OC [2,3-DMS, trans-2,3-Dimethoxystilbene]
II = COc1ccc(/C=C/c2ccccc2)cc1OC [3,4-DMS, trans-3,4-dimethoxystilbene]
Prompt: Lab note: check whether I or II shows the higher recorded half-life. # reply format: chosen label
Completion: I
(I: 4.81 h, II: 3.22 h)

* * *

Assay: Oral pharmacokinetics in Sprague-Dawley rats
Type: in vivo
Conditions: male, Sprague-Dawley, rat, plasma; oral 10 mg/kg, HP-β-CD formulation
Procedure: This animal model has been used to investigate the pharmacokinetics of various stilbenes. The animal handling protocol was reviewed and approved by the Institutional Animal Care and Use Committee of the National University of Singapore (NUS). […] Pharmacokinetic parameters were derived using WinNonlin standard version 1.0 (Scientific Consulting Inc., Apex, NC, USA). […] Clearance (Cl0→last), mean transit time (MTT0→last) and terminal half-life (t1/2 λZ) were calculated using non-compartmental analysis. […]
measured_property: AUC(0-t) (ng·h/mL)
Please reply with the bare figure in ng·h/mL and do not write the unit itself.

Notebook: COc1cccc(/C=C/c2ccccc2)c1OC [2,3-DMS, trans-2,3-Dimethoxystilbene] , AUC(0-t) read as 64.3

* * *

assay: Stability in rat plasma (QC samples: short-term, freeze-thaw, long-term); format: in vitro ADME; conditions: Plasma samples stored at 4 °C for 6 h, spiked 25 ng/mL, read-out: Stability (% Remained)
measured_property: remaining at 6 h, 25 ng/mL (%)

COc1ccc(/C=C/c2ccccc2)cc1OC [3,4-DMS, trans-3,4-dimethoxystilbene]
104
COc1cccc(/C=C/c2ccccc2)c1OC [2,3-DMS, trans-2,3-Dimethoxystilbene]
94.9

* * *

assay: Stability in rat plasma (QC samples: short-term, freeze-thaw, long-term); type: in vitro ADME; conditions: Plasma samples after three freeze-thaw cycles, spiked 25 ng/mL, read-out: Stability (% Remained)
measured_property: remaining at 25 ng/mL (%)

COc1cccc(/C=C/c2ccccc2)c1OC [2,3-DMS, trans-2,3-Dimethoxystilbene]
102
COc1ccc(/C=C/c2ccccc2)cc1OC [3,4-DMS, trans-3,4-dimethoxystilbene]
106

* * *

test: Stability in rat plasma (QC samples: short-term, freeze-thaw, long-term); format: in vitro ADME; conditions: Plasma samples stored at 4 °C for 6 h, spiked 400 ng/mL, read-out: Stability (% Remained)
measured_property: remaining at 6 h, 400 ng/mL (%)

COc1ccc(/C=C/c2ccccc2)cc1OC [3,4-DMS, trans-3,4-dimethoxystilbene]
94.7
COc1cccc(/C=C/c2ccccc2)c1OC [2,3-DMS, trans-2,3-Dimethoxystilbene]
95.5

* * *

assay: Stability in rat plasma (QC samples: short-term, freeze-thaw, long-term); type: in vitro ADME; conditions: Plasma samples stored at 4 °C for 6 h, spiked 1400 ng/mL, read-out: Stability (% Remained)
measured_property: remaining at 6 h, 1400 ng/mL (%)

COc1cccc(/C=C/c2ccccc2)c1OC [2,3-DMS, trans-2,3-Dimethoxystilbene]
95.4
COc1ccc(/C=C/c2ccccc2)cc1OC [3,4-DMS, trans-3,4-dimethoxystilbene]
96.2

* * *

test: Oral pharmacokinetics in Sprague-Dawley rats; format: in vivo; settings: male, Sprague-Dawley, rat, plasma; oral 10 mg/kg
measured_property: Cmax (ng/mL)
Please reply with the bare figure in ng/mL and do not write the unit itself.

Notebook: COc1cccc(/C=C/c2ccccc2)c1OC [2,3-DMS, trans-2,3-Dimethoxystilbene] , Cmax read as 37.5

Provenance of the data: paper PMC6271088
